- system-name: IRAK4 (Homo sapiens)
- Construct: endogenous in cells; host or cells: THP-1 cells
- Sequence (Q9NWZ3 whole entry): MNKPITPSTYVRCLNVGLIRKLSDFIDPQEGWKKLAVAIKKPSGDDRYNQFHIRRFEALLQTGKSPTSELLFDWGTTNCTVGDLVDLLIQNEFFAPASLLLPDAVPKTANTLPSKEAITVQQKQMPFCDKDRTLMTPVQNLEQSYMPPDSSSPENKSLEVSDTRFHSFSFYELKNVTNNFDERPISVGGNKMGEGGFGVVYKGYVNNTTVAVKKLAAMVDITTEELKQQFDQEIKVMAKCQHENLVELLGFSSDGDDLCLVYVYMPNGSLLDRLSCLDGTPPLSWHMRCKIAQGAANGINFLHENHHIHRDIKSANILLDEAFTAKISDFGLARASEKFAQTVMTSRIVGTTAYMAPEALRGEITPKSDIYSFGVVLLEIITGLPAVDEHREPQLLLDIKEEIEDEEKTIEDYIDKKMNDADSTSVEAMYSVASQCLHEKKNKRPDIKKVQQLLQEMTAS
- measurement-description: ALE THP1 HTRF (Advanced Lipoxidation End Product THP1 Homogeneous Time Resolved Fluorescence)
- Type: cell-based
- test-context: THP1 cells
property-label: ALE THP1 HTRF YMIN (%)

>  <compound>
C[C@@H]1CN(c2ccc3c(c2)C(=O)N(C2CCC(=O)NC2=O)C3=O)C[C@H](C)N1CC1CCC(NC(=O)c2cnc(-n3ncc4cc(C#N)cnc43)cc2NC2CCCC2)CC1 (stereo partly drawn)

>  <ALE THP1 HTRF YMIN / %>
21.0

$$$$

[1] CCNc1cc(-n2ncc3cc(C#N)cnc32)ncc1C(=O)NC1CCC(CCN2CCN(c3ccc(C4CCC(=O)NC4=O)cc3)CC2)CC1 (stereo not drawn)
[2] O=C1CCC(N2C(=O)c3ccc(N4CCN(C(=O)[C@H]5CC[C@H](n6cc(-c7cnc(Nc8ccc9ncsc9c8)cc7NC7CCCC7)nn6)CC5)CC4)cc3C2=O)C(=O)N1 (stereo partly drawn)
*Q* Parameter metric = ALE THP1 HTRF YMIN. Return the lower-valued option from 1 and 2 . Selection: enter the item's label.
*A* 1
(1: 10.9%, 2: 20.0%)
